Provenance of the data: PubChem BioAssay (NCI)

Listed below: TGI values for each entry.
# Tested on: SNB-19 CNS
# Assay overview: NCI tumour cell line growth inhibition, 48 h
Assay metric: TGI

INSERT INTO measurements (compound, result) VALUES
  ('Cc1nc(C)c(N2CCN(S(N)(=O)=O)CC2)c(=O)[nH]1', '> 100 µM'),
  ('C=CCCCN1CCCCC1=S', '> 100 µM'),
  ('CCN(CC)CCn1c(=O)c2cc(OC)c(OC)cc2c2ccc3cc4c(cc3c21)OCO4', '27.2 µM'),
  ('O=C(O[C@H]1[C@@H]2C=CO[C@@H](OC3OC(CO)C(O)C(O)C3O)[C@@H]2[C@@]2(CO)O[C@@H]12)c1ccc(O)c(O)c1 (some centres not stated)', '> 100 µM'),
  ('O=C(Nc1n[nH]c2nc(-c3ccc(O)cc3)c(Br)cc12)C1CC1', '> 24.1 µM'),
  ('COc1ccc(N/N=C/C2=CC(C)(C)C(C#N)(C#N)C(O)=C2C#N)cc1', '> 100 µM'),
  ('C#Cc1cccc(NC(=O)c2cccc(NC(=O)CCl)c2)c1', '> 82.5 µM'),
  ('O=S1(=O)c2cc(S(=O)(=O)n3ccnc3)ccc2NC2=NCCCN21', '> 100 µM'),
  ('COc1ccc(C2CC(c3ccc(OC)cc3O)=NN2c2ccc(S(N)(=O)=O)cc2)cc1 (configuration not stated)', '> 100 µM'),
  ('CN(C)CCN(C)C(=O)c1cccc2cccc(C(=O)O)c12', '> 100 µM'),
  ('O=S(=O)(O)n1ccnc1 (tested in a mixture with another compound)', '> 100 µM'),
  ('CCOC(=O)c1c(-c2ccc(OC)c(O)c2)c(C#N)c(=S)n(C2OC(COC(C)=O)C(OC(C)=O)C(OC(C)=O)C2OC(C)=O)c1-c1ccccc1 (configuration not stated)', '> 100 µM');
